Mean fold changes (VPS35 levels normalized on β-Actin, over vehicle-treated cells) values, listed per item
# systemUnderTest: VPS35 (Mus musculus, UniProt Q9EQH3+Q9QZ88)
# method: VPS35 levels in Neuro2a cells by Western blot (screening of amino guanidine hydrazones)
# Type: cell-based
# Design: endogenous in cells; host or cells: Neuro2a
# cond: 10 μM, 48 hours, independent cultures n=3
endpoint: Mean fold changes (VPS35 levels normalized on β-Actin, over vehicle-treated cells)

In [3]: df
Out[3]:
                               linenotation                           systemundertest  recordedresult
0  N=C(N)NN=Cc1cc(C=NNC(=N)N)cc(C=NNC(=N)N)c1  VPS35 (Mus musculus, UniProt Q9EQH3+Q9QZ88)           1.154
1        N=C(N)NN=Cc1ccc(Br)c(C=NNC(=N)N)c1  VPS35 (Mus musculus, UniProt Q9EQH3+Q9QZ88)           1.617
2  Cc1ccc(C(=O)Nc2cc(C=NNC(=N)N)cc(C=NNC(=N)N)c2)cc1  VPS35 (Mus musculus, UniProt Q9EQH3+Q9QZ88)           0.974
3  N=C(N)NN=Cc1cc(C=NNC(=N)N)cc(C(=O)N2CCN(c3ccccc3)CC2)c1  VPS35 (Mus musculus, UniProt Q9EQH3+Q9QZ88)           1.784
4         N=C(N)NN=Cc1ccc(O)c(C=NNC(=N)N)c1  VPS35 (Mus musculus, UniProt Q9EQH3+Q9QZ88)           2.477
